Each record here notes measured EC50.
# System: M-07e cells
# procedure_summary: M-07e cellular assay (SCF-mediated cell proliferation)
# Type: cell-based
# study_conditions: Homo sapiens, 72 hours, CellTiter Glo

Cc1ccc(-c2noc([C@H]3C[C@@H]3F)n2)cc1NC(=O)c1cnn2ccc(-c3c(C)nc(N4CC5(COC5)C4)nc3C)cc12: 100 to 1000 nM

Which value of EC50 has been reported for Cc1ccc(-c2noc([C@H]3C[C@@H]3F)n2)cc1NC(=O)c1cnc(-c2ccc3[nH]c(C(F)(F)F)cc3c2)o1 in the records?
< 100 nM

Which value of EC50 has been reported for Cc1ccc(-c2noc([C@H]3C[C@@H](OC(F)F)C3(C)C)n2)cc1NC(=O)c1cnn2ccc(N3CC4(COC4)C3)cc12 in the records?
100 to 1000 nM

Which value of EC50 has been reported for Cc1ccc(-c2noc([C@H]3C[C@@H](OC(F)(F)F)C3)n2)cc1NC(=O)c1cnn2ccc(N3CC4(CCN(CC(F)F)C4)C3)cc12 in the records?
100 to 1000 nM

Which value of EC50 has been reported for Cc1ccc(-c2noc([C@H]3C[C@](O)(C(F)(F)F)C3)n2)cc1NC(=O)c1cnn2ccc(N3CC4(COC4)C3)cc12 in the records?
< 100 nM

Which value of EC50 has been reported for Cc1ncc(-c2ccn3ncc(C(=O)Nc4cc(-c5noc([C@H]6C[C@@H]6F)n5)ccc4C)c3c2)c(C)n1 in the records?
< 100 nM

---

# System: M-07e cells
# procedure_summary: M-07e cellular assay (SCF-mediated cell proliferation)
# Assay type: cell-based
# study_conditions: Homo sapiens, 72 hours, CellTiter Glo
property_measured: EC50

// known answers, use as guide
Cc1sc(-c2noc(C3CN(C(=O)C4CC4)C3)n2)cc1NC(=O)c1cnn2ccc(N3CC4(C3)CC(O)(C(F)F)C4)cc12 [Example 281-122]: > 1000 nM
Cc1ccc(-c2noc([C@H]3C[C@@H]3F)n2)cc1NC(=O)c1cnc2n1C(C)(C)c1ccccc1-2 [Example 105]: 100 to 1000 nM
Cc1nc(N)nc(C)c1-c1ccn2ncc(C(=O)Nc3cc(-c4noc(C5CN(C(=O)OC(C)(C)C)C5)n4)sc3C)c2c1 [Example 369]: > 1000 nM
Cc1nc(N)nc(C)c1-c1ccn2ncc(C(=O)Nc3cc(-c4noc([C@H]5C[C@@H](OC(F)(F)F)C5)n4)sc3C)c2c1 [Example 368]: 100 to 1000 nM

# query: EC50 | item Cc1ccc(-c2noc([C@H]3C[C@@H]3F)n2)cc1NC(=O)c1cnn2ccc(NC(=O)OC3CC3)cc12 [Example 94] | system: M-07e cells
100 to 1000 nM

# query: EC50 | item Cc1ccc(-c2noc(C3CN(C(=O)C4CC(F)(F)C4)C3)n2)cc1NC(=O)c1cnn2ccc(N3CC4(COC4)C3)cc12 [Example 281-49] | system: M-07e cells
> 1000 nM

# query: EC50 | item Cc1ccc(-c2noc([C@H]3C[C@@H]3F)n2)cc1NC(=O)c1cnn2ccc(C3CC4(C3)CC(F)(F)C4)cc12 [Example 167-1] | system: M-07e cells
< 100 nM

---

# assayed_system: Recombinant human c-KIT kinase (Homo sapiens (Human), UniProt P10721)
# Sequence (P10721 26-976): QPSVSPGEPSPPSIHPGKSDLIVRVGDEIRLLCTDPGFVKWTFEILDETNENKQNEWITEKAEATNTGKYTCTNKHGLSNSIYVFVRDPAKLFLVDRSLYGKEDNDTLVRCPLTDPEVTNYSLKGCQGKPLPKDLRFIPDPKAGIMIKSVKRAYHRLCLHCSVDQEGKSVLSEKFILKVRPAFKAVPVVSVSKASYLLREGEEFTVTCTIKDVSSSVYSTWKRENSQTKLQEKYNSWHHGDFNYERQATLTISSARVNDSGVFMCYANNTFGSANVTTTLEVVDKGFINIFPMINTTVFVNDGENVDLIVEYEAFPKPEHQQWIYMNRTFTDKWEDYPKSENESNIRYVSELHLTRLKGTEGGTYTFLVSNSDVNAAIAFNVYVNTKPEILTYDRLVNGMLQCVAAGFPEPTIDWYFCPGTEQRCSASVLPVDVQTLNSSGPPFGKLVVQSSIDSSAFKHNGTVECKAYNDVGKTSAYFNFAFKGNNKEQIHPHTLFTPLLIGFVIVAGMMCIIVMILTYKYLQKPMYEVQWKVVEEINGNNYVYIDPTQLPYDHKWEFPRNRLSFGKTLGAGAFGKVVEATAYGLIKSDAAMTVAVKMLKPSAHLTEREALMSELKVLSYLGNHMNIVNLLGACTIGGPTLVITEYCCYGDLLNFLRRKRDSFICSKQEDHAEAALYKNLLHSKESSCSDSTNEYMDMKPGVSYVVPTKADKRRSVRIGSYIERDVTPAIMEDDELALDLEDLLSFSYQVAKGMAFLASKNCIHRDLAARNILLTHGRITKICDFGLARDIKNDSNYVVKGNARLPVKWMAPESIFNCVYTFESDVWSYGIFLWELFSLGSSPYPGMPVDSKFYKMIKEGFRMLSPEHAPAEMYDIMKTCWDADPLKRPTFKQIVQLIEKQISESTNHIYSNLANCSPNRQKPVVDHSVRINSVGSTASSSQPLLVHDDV
# procedure_summary: c-KIT kinase chemiluminescence assay (ADP-Glo)
# study_conditions: ATP 50 μM
property_measured: IC50

// known answers, use as guide
Cc1ncc(-c2ncc(C(C)C)cn2)cc1NC(=O)c1cnn2ccc(N3CC4(C3)CC(O)(C(F)F)C4)cc12: < 100 nM
Cc1ccc(-c2noc([C@H]3C[C@@H]3F)n2)cc1NC(=O)c1cnc(-c2ccc3[nH]ccc3c2)o1: < 100 nM
Cc1nc(C)c(-c2ccn3ncc(C(=O)Nc4cc(-c5noc([C@H]6C[C@@H]6F)n5)ccc4C)c3c2)s1: < 100 nM
Cc1ccc(-c2noc([C@H]3C[C@@H]3F)n2)cc1NC(=O)c1cnc(-c2ccc3c(c2)C2(CCN(C(=O)OC(C)(C)C)CC2)C(=O)N3)o1: > 1000 nM
Cc1ccc(-c2noc(C3CCN(C(=O)[C@H]4C[C@@H]4F)CC3)n2)cc1NC(=O)c1cnn2ccc(N3CC4(C3)CC(O)(C(F)F)C4)cc12: 100 to 1000 nM

Which value of IC50 has been reported for Cc1ncc(-c2noc(C3CC(F)(F)C3)n2)cc1NC(=O)c1cnn2cc(-c3cn(C(F)F)nn3)ccc12 in the records?
100 to 1000 nM

---

# assayed_system: Recombinant human c-KIT kinase (Homo sapiens (Human), UniProt P10721)
# procedure_summary: c-KIT kinase chemiluminescence assay (ADP-Glo)
# study_conditions: ATP 50 μM
pIC50: −log10 of the molar value.
property_measured: pIC50

// known answers, use as guide
Cc1ncc(-c2noc([C@H]3C[C@](O)(C(F)F)C3)n2)cc1NC(=O)c1cnn2ccc(N3CC4(C3)CC(O)(C(F)F)C4)cc12 [Example 281-37]: 6.00 to 7.00
Cc1ccc(-c2noc([C@H]3C[C@@H]3F)n2)cc1NC(=O)c1cnn2ccc(N3CC4(COC4)C3)cc12 [Example 43]: > 7.00
Cc1ccc(-c2noc([C@H]3C[C@@H]3F)n2)cc1NC(=O)c1cnn(-c2ccccc2Cl)c1 [Example 76]: < 6.00
COC12CC(c3nc(-c4ccc(C)c(NC(=O)c5cnn6ccc(N7CC8(COC8)C7)cc56)c4)no3)(C1)C2 [Example 272]: > 7.00
Cc1ccc(-c2noc(C3CCN(C(=O)[C@H]4C[C@@H]4F)CC3)n2)cc1NC(=O)c1cnn2ccc(N3CC4(COC4)C3)cc12 [Example 281-93]: 6.00 to 7.00

Which value of pIC50 has been reported for Cc1ccc(-c2noc([C@H]3C[C@@H]3F)n2)cc1NC(=O)c1ccnc2ncccc12 [Example 12] in the records?
< 6.00

Which value of pIC50 has been reported for Cc1ccc(-c2ncc(OC(F)F)cn2)cc1NC(=O)c1cnn2ccc(-c3c(C)nc(N)nc3C)cc12 [Example 366] in the records?
< 6.00

Which value of pIC50 has been reported for Cc1ccc(-c2noc([C@H]3C[C@@H]3F)n2)cc1NC(=O)c1cnc(-n2cccn2)o1 [Example 308-5] in the records?
< 6.00

Which value of pIC50 has been reported for CC(=O)N1CCC(c2nc(-c3cnc(C)c(NC(=O)c4cnn5ccc(N6CC7(C6)CC(O)(C(F)F)C7)cc45)c3)no2)CC1 [Example 281-72] in the records?
< 6.00

---

Each record here notes measured pIC50.
# assayed_system: Recombinant human c-KIT kinase (Homo sapiens (Human), UniProt P10721)
# procedure_summary: c-KIT kinase chemiluminescence assay (ADP-Glo)
# study_conditions: ATP 50 μM
pIC50: −log10 of the molar value.

Cc1ccc(-c2noc([C@H]3C[C@@H]3F)n2)cc1NC(=O)c1cnc2n1CCOc1ccccc1-2 [Example 101]: 6.00 to 7.00

Which value of pIC50 has been reported for Cc1ccc(-c2noc([C@H]3C[C@@H]3F)n2)cc1NC(=O)c1cnn2ccc(N3C[C@@H](F)[C@@H]3C)cc12 [Example 224] in the records?
> 7.00

Which value of pIC50 has been reported for Cc1ccc(-c2noc([C@H]3C[C@@H]3F)n2)cc1NC(=O)c1cnn2ccc(-c3cnc(C4CC4)nc3)cc12 [Example 160] in the records?
> 7.00

Which value of pIC50 has been reported for Cc1ccc(-c2noc(N3CC(O)(C(F)(F)F)C3)n2)cc1NC(=O)c1cnn2ccc(N3CC4(COC4)C3)cc12 [Example 281-82] in the records?
> 7.00

Which value of pIC50 has been reported for Cc1ccc(-c2noc([C@H]3C[C@@H]3F)n2)cc1NC(=O)c1cnn2ccc(N3CC4(CN(C(=O)C5CC(F)(F)C5)C4)C3)cc12 [Example 241-12] in the records?
> 7.00

Which value of pIC50 has been reported for Cc1ccc(-c2noc([C@H]3C[C@@H]3F)n2)cc1NC(=O)c1cnn2ccc(-c3cc(C(F)(F)F)nn3C)cc12 [Example 171-22] in the records?
6.00 to 7.00

Which value of pIC50 has been reported for Cc1ccc(-c2noc([C@H]3C[C@@H]3F)n2)cc1NC(=O)c1cnc(-c2ccc3[nH]c4c(c3c2)CCNC4)o1 [Example 308-57] in the records?
> 7.00

---

# Test system: M-07e cells
# procedure_summary: M-07e cellular assay (SCF-mediated cell proliferation)
# Assay type: cell-based
# study_conditions: Homo sapiens, 72 hours, CellTiter Glo
Each record here notes measured EC50.

// known answers, use as guide
COc1ccc2c(C(=O)Nc3cc(-c4noc([C@H]5C[C@@H]5F)n4)ccc3C)cnn2c1: < 100 nM
Cc1ccc(-c2noc([C@H]3C[C@@H]3F)n2)cc1NC(=O)c1cnc(-c2ccc3[nH]ncc3c2)o1: < 100 nM
Cc1ccc(-c2noc([C@H]3C[C@@H]3F)n2)cc1NC(=O)c1cnc2n1CCc1ccccc1-2: 100 to 1000 nM
Cc1ccc(-c2noc([C@H]3C[C@@H]3F)n2)cc1NC(=O)c1cnn2ccc(N3CC4(CCOC4)C3)cc12: < 100 nM
Cc1ncc(-c2nnn(C(C)C)n2)cc1NC(=O)c1cnn2ccc(N3CC4(C3)CC(O)(C(F)F)C4)cc12: < 100 nM

Which value of EC50 has been reported for Cc1ccc(-c2noc([C@H]3C[C@@H](OC(F)F)C3)n2)cc1NC(=O)c1cnn2ccc(N3CC4(CCN(CC(F)F)C4)C3)cc12 in the records?
< 100 nM

Which value of EC50 has been reported for Cc1cc(F)c(-c2noc([C@H]3C[C@@H](OC(F)(F)F)C3)n2)cc1NC(=O)c1cnn2ccc(N3CC4(COC4)C3)cc12 in the records?
100 to 1000 nM

Which value of EC50 has been reported for Cc1ccc(-c2noc([C@H]3C[C@@H]3F)n2)cc1NC(=O)c1cnn2cc(Cl)c(Br)cc12 in the records?
> 1000 nM

Which value of EC50 has been reported for Cc1ccc(-c2noc([C@H]3C[C@@H]3F)n2)cc1NC(=O)c1cnn2ccc(-c3cnccn3)cc12 in the records?
< 100 nM
